B1: SLC19A2 (parent)
chain: FASLRPSEPFLTPYLLGPDKNLTE

- Variants of: B1
- protocol-notes: protein stability index of a GFP-peptide fusion (GPS, HEK-293T) (PSI 1-6); higher = more stable;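 note: lentivirally expressed fusions sorted by FACS into six bins by GFP to DsRed ratio, PSI derived from sequencing read proportions per bin multiplied by bin number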
- experimental-setup: c terminus: a fixed tail appended
metric-name: protein stability index
// response body must contain only the number

Sample answers from the record:
G17P | 2.62
L22C | 1.96
E8R | 1.59

Look at this variant and give its reported protein stability index. Y14T
2.58

And what about the variant P13M ?
1.46

And what about the variant P9H ?
1.67

And what about the variant L15C ?
2.23

And what about the variant P9L ?
2.5
